Molecular target: MAPK14 (human)
Experiment: Inhibition of LPS Stimulated TNF Production by U937 Cells
pIC50: −log10 of the molar value.
Outcome: Condition met for pIC50 of at least 6; Condition not met for anything lower.

Worked cases, answers included:
{"compound": "CCOC(=O)CC[C@H](NC(=O)Cn1nc(-c2ccc(F)cc2)c(-c2ccncc2)c1C)C(=O)OCC", "label": "Condition not met"}
{"compound": "Cc1[nH]nc(-c2ccc(Br)cc2)c1-c1ccncc1", "label": "Condition met"}
{"compound": "Cc1cc(Cl)ccc1OCC1SCCN1C(=O)Cn1nc(-c2ccc(F)cc2)c(-c2ccncc2)c1C (stereo not given)", "label": "Condition not met"}

Prompt: pIC50 >= 6 for O=S(=O)(NCc1[nH]nc(-c2ccc(F)cc2)c1-c1ccncc1)c1ccc(F)cc1F ?
Response: Condition not met

Prompt: pIC50 >= 6 for CN(C)CCCNc1n[nH]c(-c2ccc(F)cc2)c1-c1ccncc1 ?
Response: Condition met

Prompt: pIC50 >= 6 for O=C(NCc1[nH]nc(-c2ccc(F)cc2)c1-c1ccncc1)c1ccccc1I ?
Response: Condition not met

----------
Biological target: UniProt:Q16539
Assay: Inhibition of LPS Stimulated TNF Production by U937 Cells
Settings: concentration not given here
reported.metric: inhibition (%)
Numbers only, in %.

As a guide, the following entries are already answered.
{"compound": "CNC(=O)CC[C@H](NS(=O)(=O)c1ccccc1F)c1[nH]nc(-c2ccc(F)cc2)c1-c1ccncc1", "test.system": "UniProt:Q16539", "inhibition / %": 1}
{"compound": "CC(=O)NCCc1[nH]nc(-c2ccc(F)cc2)c1-c1ccncc1", "test.system": "UniProt:Q16539", "inhibition / %": 79}
{"compound": "Cc1ccccc1S(=O)(=O)NCc1[nH]nc(-c2ccc(F)cc2)c1-c1ccncc1", "test.system": "UniProt:Q16539", "inhibition / %": 24}
{"compound": "C[C@@H](NC(=O)c1c(F)ccc(F)c1F)c1[nH]nc(-c2ccc(F)cc2)c1-c1ccncc1", "test.system": "UniProt:Q16539", "inhibition / %": 73}

Next:
// CC(NC(=O)NCCc1[nH]nc(-c2ccc(F)cc2)c1-c1ccncc1)c1cccc2ccccc12 (stereo not given) : inhibition value = 2

----------
Target: MAPK14 (human) (UniProt Q16539)
Sequence (Q16539 whole entry, looked up): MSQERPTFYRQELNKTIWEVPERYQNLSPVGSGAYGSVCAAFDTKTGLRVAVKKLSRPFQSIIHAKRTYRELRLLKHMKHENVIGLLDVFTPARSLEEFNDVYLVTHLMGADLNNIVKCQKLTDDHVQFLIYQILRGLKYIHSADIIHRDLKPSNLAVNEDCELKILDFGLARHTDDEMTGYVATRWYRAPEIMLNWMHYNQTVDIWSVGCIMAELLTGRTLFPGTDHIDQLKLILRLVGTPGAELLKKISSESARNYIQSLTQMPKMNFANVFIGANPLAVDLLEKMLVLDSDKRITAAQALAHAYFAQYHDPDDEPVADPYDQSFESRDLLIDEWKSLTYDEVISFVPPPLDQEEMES
Assay: Inhibition of LPS Stimulated TNF Production by U937 Cells
Settings: concentration not given here
reported.metric: inhibition (%)
Answers are plain numbers, in %.

As a guide, the following entries are already answered.
{"smiles.notation": "C[C@H](NS(=O)(=O)c1ccc(Br)cc1)c1[nH]nc(-c2ccc(F)cc2)c1-c1ccncc1", "unit.of.measurement": "%", "inhibition": 87}
{"smiles.notation": "Cc1cccc(Cl)c1S(=O)(=O)N[C@@H](C)c1[nH]nc(-c2ccc(F)cc2)c1-c1ccncc1", "unit.of.measurement": "%", "inhibition": 89}
{"smiles.notation": "Cc1noc(C)c1S(=O)(=O)NCCCc1[nH]nc(-c2ccc(F)cc2)c1-c1ccncc1", "unit.of.measurement": "%", "inhibition": 85}
{"smiles.notation": "O=S(=O)(NCc1[nH]nc(-c2ccc(F)cc2)c1-c1ccncc1)c1cc(Cl)cc(Cl)c1", "unit.of.measurement": "%", "inhibition": 45}

Next:
So the reported inhibition for CCCC(CCC)C(=O)NCc1[nH]nc(-c2ccc(F)cc2)c1-c1ccncc1 , on MAPK14 (human) (UniProt Q16539), turned out to be 29
